# System: COLO 205 colon
# run_description: NCI-60 one-dose screen, 48 h (100 = growth as untreated, 0 = no growth, -100 = all killed)
# conditions: 10 µM unless noted
# Procedure: Cells are grown in 96 well plates and exposed to the test compound for 48 hours. Compounds are tested at a single concentration, which is 10^-5 M for most compounds. The reported endpoint is percent growth (GI% or GIPRCNT), where numbers from 0 - 100% represent growth inhibition, and numbers from -100% - 0 represent cell death. For example, a value of 40 represents 60% growth inhibition. A value of 0 means no net growth occurred over the course of the experiment. […]
About 83,000 compounds went through this panel and 20% of them were active in at least one assay; those are over-represented in the sample as a whole.
I'd appreciate it if you marked entries 1 when growth is lower than 70% and 0 when it is not.

Use these answered entries as a reference point.
Oc1cccc(CCc2ccc(Oc3cc(CCc4cccc(O)c4)cc(O)c3O)cc2)c1 : 0
COc1cc2cc(CN3CCN(c4nccc(-c5ccc6ccccc6c5)n4)CC3)c(=O)[nH]c2cc1OC : 0
COc1cccc(/C=N/NC(=O)c2cnn3c2NC(c2ccccc2)C3)c1Oc1ccccc1 (centres undefined) : 0

Exercise: Lab note: confirm whether the reported growth for this compound is below 70%, equality not counting. compound: `CCNc1nc2cc(Nc3ccnc4cc(Cl)ccc34)ccc2o1`
Solution: 0

Exercise: I'd appreciate it if you could check whether `Cc1ccc(-n2c3c(c(-c4ccccc4)c2-c2ccccc2)C2=NCCN2C=N3)cc1` has growth smaller than 70%.
Solution: 0

Exercise: Please check: growth for `CCCOC(=O)N[C@H]1CCc2c(Cl)c(OC)c(OC)c(OC)c2-c2ccc(SC)c(=O)cc21` , strictly under 70% or not?
Solution: 1

Exercise: Strictly below 70% in growth? `COc1cc2oc(-c3cccc(C(=O)Nc4ccc(Cl)cc4)c3)cc(=O)c2c(O)c1OC`
Solution: 0

Exercise: Regarding `COc1cc2nc(-c3ccc(C(F)(F)F)cc3)cc(OCCCN3CCCC3)c2cc1OC` , kindly confirm whether its growth is beneath 70%.
Solution: 1

Exercise: State whether 70% exceeds growth recorded for O=C1OC(Cc2ccccc2)C1c1ccccc1 (centres undefined) .
Solution: 0

Exercise: Identify whether the compound `O=C(/C=C(/C=C/c1coc2ccccc12)OB(F)F)/C=C/c1coc2ccccc12` records growth below 70%.
Solution: 0

Exercise: Quick check: growth of `ClC1=C(Br)C(Br)(Br)C(=C(Br)Br)C1(Br)Br` under 70%?
Solution: 1

Exercise: Quick check: does `O=S(=O)(NCCCNc1nccc(-c2c(-c3cccc(F)c3)nc3sccn23)n1)c1cccc(F)c1` have growth under 70%?
Solution: 1

Exercise: Confirm or reject: growth of `CCNC(=O)Oc1ccc(/C(=C(\C)c2ccccc2)c2ccc(OCCN3CCCCC3)cc2)cc1` lies strictly below 70%
Solution: 1

Exercise: For `COc1ccc(/C=C/c2nc(Nc3cccc(NC(C)=O)c3)c3ccccc3n2)cc1` , is the recorded growth below the cut-off of 70%?
Solution: 0

----------
# Test system: RPMI-8226 leukemia
# run_description: NCI-60 one-dose screen, 48 h (100 = growth as untreated, 0 = no growth, -100 = all killed)
# conditions: 10 µM unless noted
About 83,000 compounds went through this panel and 20% of them were active in at least one assay; those are over-represented in the sample as a whole. Active and inactive are the calls of the source. The calls were made as follows: active = growth percent below 10; inactive = the rest.
Provide the recorded growth for the entries that follow.

# example entries with known answers
Cc1cccc(NC(=O)Nc2ccc(-c3ccc4c(c3)NC(=O)/C4=C\c3ccc[nH]3)cc2)c1 : 91.4% (inactive)
COc1ccc(OC)c(CCn2cncc2-c2c[nH]c3ccccc23)c1 : 45.6% (inactive)
O=C(Nc1ccc(NC(=O)c2cc(=O)[nH]c3ccccc23)cc1)Nc1cccc(Cl)c1 : 96.3% (inactive)

// each molecule listed below needs its growth
1. O=S(=O)(NCCCNc1nccc(-c2c(-c3cccc(F)c3)nc3sccn23)n1)c1cccc(F)c1
2. Nc1c(C(=O)Nc2cccc3cnccc23)sc2nc3c(cc12)C(=O)CCC3
3. O=S(=O)(NCCNc1nccc(-c2c(-c3cccc(F)c3)nc3sccn23)n1)c1ccc(Br)cc1

Solution:
28% (inactive)
88.9% (inactive)
58% (inactive)

Cited source for all entries: PubChem BioAssay (NCI)
